meta.source: patent US6511978B1

Target: Ras farnesyl transferase (Rattus norvegicus, UniProt Q02293+Q04631)
Construct: endogenous in cells; host or cells: Rat2 fibroblasts transformed with C-Harvey-Ras or with the H-Ras/K-Ras polybasic-domain fusion
Assay: In vivo (intracellular) Ras farnesylation inhibition in Rat2 cell line expressing C-Harvey-Ras
Format: cell-based
Conditions: Rat2 cells expressing C-Harvey-Ras; concentration inhibiting 50% of farnesyl binding; read-out: H-Ras CIC50
Experimental: In the present experiment, Rat2 cell line which expresses C-Harvey-Ras protein having transforming activity and Rat2 cell line(Korean patent application No. 97-14409) which is transformed with fused protein of H-Ras substituted with polybasic lysine domain at C-terminus of K-Ras were used. The experiment was performed by the modified Declue's method(Declue. J. E. et al., Cancer Research, 51, 712, 1991) as follows. […]
PROPERTY: IC50

Name the recorded IC50 of the molecule listed here: CN1CCN(C(=O)c2cn(Cc3cnc(N)n3Cc3ccc4c(c3)OCO4)cc2-c2cccc3ccccc23)CC1
> 25 nM

Fill in reported IC50 for this entry: COCCN(C)C(=O)c1cn(Cc2cncn2CCCSc2ccccc2)cc1-c1cccc2ccccc12
< 25 nM

###

target: Ras farnesyl transferase (Homo sapiens, UniProt P49354+P49356); construct: made in house; assay: Ras farnesyl transferase enzyme inhibition, K-Ras substrate (H-Ras fused with polybasic lysine domain of K-Ras); type: biochemical; details: K-Ras substrate (fused protein of H-Ras with polybasic lysine domain of K-Ras); recombinant farnesyl transferase
PROPERTY: IC50

Consider the worked cases shown below.
input_smiles=CN1CCN(C(=O)c2cn(Cc3cncn3CCCOc3ccccc3)cc2-c2cccc3ccccc23)CC1 result="< 10 nM"
input_smiles=CN1CCN(C(=O)c2cn(Cc3c(N)ncn3Cc3ccc4c(c3)OCO4)cc2-c2cccc3ccccc23)CC1 result="< 30 nM"
input_smiles=COCCN(C)C(=O)c1cn(Cc2cncn2C2CCN(Cc3ccccc3)CC2)cc1-c1cccc2ccccc12 result="< 10 nM"

For the compound CN1CCN(C(=O)c2cn(Cc3cncn3CCCOCc3ccccc3)cc2-c2cccc3ccccc23)CC1 , give its reported IC50.
< 10 nM

Indicate its recorded IC50; the compound in question is Cc1ncc(Cn2cc(C(=O)N3CCN(C)CC3)c(-c3cccc4ccccc34)c2)n1Cc1ccc2c(c1)OCO2
< 13 nM

Write down IC50 measured for item O=[N+]([O-])c1cn(Cc2cncn2CCc2ccc(F)cc2)cc1-c1cccc2ccccc12
< 7.5 nM

###

target: Ras farnesyl transferase (Rattus norvegicus, UniProt Q02293+Q04631); construct: endogenous in cells; host or cells: Rat2 fibroblasts transformed with C-Harvey-Ras or with the H-Ras/K-Ras polybasic-domain fusion; assay: In vivo (intracellular) Ras farnesylation inhibition in Rat2 cell line expressing C-Harvey-Ras; type: cell-based; conditions: Rat2 cells expressing C-Harvey-Ras; concentration inhibiting 50% of farnesyl binding; read-out: H-Ras CIC50
PROPERTY: IC50

compound="Cc1ncn(Cc2ccc3c(c2)OCO3)c1Cn1cc(C(=O)N2CCN(C)CC2)c(-c2cc(Cl)cc3ccccc23)c1 [Example 52]" target_entity="Ras farnesyl transferase (Rattus norvegicus, UniProt Q02293+Q04631)" result="< 10 nM"
compound="Cc1c(C(=O)N2CCN(C)CC2)c(-c2cccc3ccccc23)cn1Cc1cncn1Cc1ccc2c(c1)OCO2 [Example 24]" target_entity="Ras farnesyl transferase (Rattus norvegicus, UniProt Q02293+Q04631)" result="> 25 nM"
compound="CN1CCN(C(=O)c2cn(Cc3cncn3CCc3cccs3)cc2-c2cccc3ccccc23)CC1 [Example 11]" target_entity="Ras farnesyl transferase (Rattus norvegicus, UniProt Q02293+Q04631)" result="> 25 nM"
compound="COCCN(C)C(=O)c1cn(Cc2cncn2CCCOc2ccccc2)cc1-c1cccc2ccccc12 [Example 4]" target_entity="Ras farnesyl transferase (Rattus norvegicus, UniProt Q02293+Q04631)" result="< 25 nM"

Now look at this entry.
Name the recorded IC50 of the compound listed here: COc1ccccc1CCn1c(Cn2cc(C(=O)N3CCN(C)CC3)c(-c3cccc4ccccc34)c2)cnc1C [Example 26]
< 25 nM
